Taken from the supplement of paper PMC7125110.

B1: glmS ribozyme (parent)
chain: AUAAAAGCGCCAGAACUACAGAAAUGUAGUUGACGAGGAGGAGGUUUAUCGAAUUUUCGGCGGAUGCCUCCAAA

Variants of: B1
Test: self-cleavage kobs at 640 uM GlcN6P; higher = faster cleavage; RNA array
Settings: with glucosamine-6-phosphate
This sample holds only a part of the variants without activity.
self-cleavage kobs at 640 uM GlcN6P values by entry

input-sequence: AUAAAAGCGCCAGAACUACAGAAAUGUAGUUGACGAGGAGGAGGUUGAUUGAAUUCUCGGCGGUUGCCUCCAAA
self-cleavage kobs at 640 uM GlcN6P: < 1e-05 s⁻¹
//
input-sequence: AUAAAAGCGCCAGGACUACAGAAAUGUAGUUGACGAGGAGGAGGUUUAUCGAAUUUUCGGCGGAUGUCUCUAAA
self-cleavage kobs at 640 uM GlcN6P: 0.000875 s⁻¹
//
input-sequence: AUAAAAGCGCCAGAACUACAGAAAUGUAGUUGACGAGGAGGAGGUUUAUCGAAUAUUCGGCUGAUGCCUCCAAA
self-cleavage kobs at 640 uM GlcN6P: < 1e-05 s⁻¹
//
input-sequence: AUAAAAGCGCCAGAACUACAGAAAUGUAGUUGACCAGGAGGAGGUUUAACUAUUUUUCGGCGGAUGCCUCCAAA
self-cleavage kobs at 640 uM GlcN6P: < 1e-05 s⁻¹
//
input-sequence: AUAAAAGCGCCAGAAUUACAGAAAUGUAGUUGACGAGGAGGUGGUUUAUCGAAUUUUACCCGGAUGCCUCCAAA
self-cleavage kobs at 640 uM GlcN6P: < 1e-05 s⁻¹
//
input-sequence: AUAAAAGCGCCAGAACUACAGAAAUGUAGUUGACGAGGAGGAGGUGUACCGAAUUUUCGGCGGAUGCCUCCAAA
self-cleavage kobs at 640 uM GlcN6P: < 1e-05 s⁻¹
//
input-sequence: AUAAAAGCGCCAGAACUACAGAAAUGUAGUUGACGAUGAGGAGGUUUAUCGAAUUUUCGGCGGUUGCCUCCAAA
self-cleavage kobs at 640 uM GlcN6P: < 1e-05 s⁻¹
//
input-sequence: AUAAAAGCGCCAGAACUACAGAAAUGUAGUUAACGAGGAGGAGGUUUAGCGAAUUUUGGGCGUAUGCCGCCAAA
self-cleavage kobs at 640 uM GlcN6P: 0.000279 s⁻¹
//
input-sequence: AUAAAAGCGACAGAACUACAGAAAUGUAGUUGACGAGGAGGCGGUUUAUCGAAUUUUCGGCGGAUGCCUCCAAA
self-cleavage kobs at 640 uM GlcN6P: < 1e-05 s⁻¹
//
input-sequence: AUAAAAGCGCCAAAACUACAGAAAUGUAGUUGACGAGGAGGUGGUUUAUCGAAUUUUCGGCGGAUGCCUCCAAA
self-cleavage kobs at 640 uM GlcN6P: < 1e-05 s⁻¹
//
input-sequence: AUAAAAGCGGCAGAAAUACAGAAAUGUAGUUGACGAGGAGGAGGUUUAUCGAUUUUUCGGCGGAUUCCACCAAA
self-cleavage kobs at 640 uM GlcN6P: 5.56e-05 s⁻¹
//
input-sequence: AUAAAAGCGCCAGAACUACAGAAAUGUAGUUGACGAGGAGGAGGUUUAUCGAAUUCUCGGCGGAUGGCUCCAAA
self-cleavage kobs at 640 uM GlcN6P: < 1e-05 s⁻¹
//
input-sequence: AUAAAAGCGCCAGAACUACAGAAAUGUACUUGACGUGGAGGACGUUUAUCGAAUUUUCGGCGGAUGCCUCCAAA
self-cleavage kobs at 640 uM GlcN6P: < 1e-05 s⁻¹
//
input-sequence: AUAAAAGCGCCAGAACUACAGAAAUGUAGUUGACGAGGAGGAGGCUUAUCGAAUUUUCGGCGGUUGCCUCCAAA
self-cleavage kobs at 640 uM GlcN6P: < 1e-05 s⁻¹
//
input-sequence: AUAAAAGCGCCAGAAAUACAGAAAUGUAGUUGACGAGGAGGAGGUGUAUCGAAUUUUCGGCGGAUGCCUCCAAA
self-cleavage kobs at 640 uM GlcN6P: 7.33e-05 s⁻¹
//
input-sequence: AUAAAAGCGCCAGCACUACAGAAAUGUAGUUGACGAGGAGGAGGUCUAUCGAAUUUUCGGCGGAUGCCUCCAAA
self-cleavage kobs at 640 uM GlcN6P: 0.000128 s⁻¹
//
input-sequence: AUAAAAGCGCCAGAACUACAGAAAUGUAUUUGACGAUGAGGAGGUUUAUCCAAUUUUCGGCGGAUGCUUCGAAA
self-cleavage kobs at 640 uM GlcN6P: 4.89e-05 s⁻¹
//
input-sequence: AUAAAAACGCCAGGACUACAGAAAUGUAUUUGACGAGGAGGAGGUUUAUCGAAUUUUCGGCGGAUGCCUGCAAA
self-cleavage kobs at 640 uM GlcN6P: < 1e-05 s⁻¹
//
input-sequence: AUAAAAGCGCCAGAACUACAGAAAUGUAGUUUACGAGUAGGAUGUUUAUCGAUUUUUCGGCGGAUGCCUCCAAA
self-cleavage kobs at 640 uM GlcN6P: < 1e-05 s⁻¹
//
input-sequence: AUAAAAGCGCCAGAACUACAGAAAUGUAGUUGACGGGGUGGAAGGUUAUCGAAUUUUCAGCGGAUGCCUCCAAA
self-cleavage kobs at 640 uM GlcN6P: < 1e-05 s⁻¹
//
input-sequence: AUAAAAGCGCCAGAACUACAGAAAUGUAGUUGACGAGGAGGAGGUUUAUUGAAUUUUCGGAGGUUGGCUCCAAA
self-cleavage kobs at 640 uM GlcN6P: 8.84e-05 s⁻¹
//
input-sequence: AUAAAAGCACCAGAACUACAGAAAUGUAGUUGAAGAGGAGGAGGUUUAUCGAAUUUUCCGCGGAUGCCUCCAAA
self-cleavage kobs at 640 uM GlcN6P: < 1e-05 s⁻¹
//
input-sequence: AUAAAAGCGCCAGAACUACAGAAAUGUAGCUGACGAGGAGGAGUUUUAUCGAAUUUUCGGCGGAUGCCUCCAAA
self-cleavage kobs at 640 uM GlcN6P: < 1e-05 s⁻¹
//
input-sequence: AUAAAAACGCCAGAACUACAGAAAUGUAGUUGACGAGGAGGAGGUUUAUCGAAUUCUCGGCGGAUGCUUCCAAA
self-cleavage kobs at 640 uM GlcN6P: < 1e-05 s⁻¹
//
input-sequence: AUAAAAGCGCCAGAACUACAGAAAUGUAGUUGACGAGGAGGAGGUUUAUCGGAUUUUCGGCGGGUGCCUCCAAA
self-cleavage kobs at 640 uM GlcN6P: 0.00036 s⁻¹
//
input-sequence: AUAAAAGCGCCAGCACUACAGAAAUGUAGUUGACGAGGAGGAGGUUUAUCGAAUAUUCGGCGGAUGCCUCCAAA
self-cleavage kobs at 640 uM GlcN6P: 0.00145 s⁻¹
//
input-sequence: AUAAAAGCGCCAGAACUACAGAAAUGUAGUUGACGAGGAGGAGGUUGAUCGAGUUUUCGGCGGAUGCCUCCAAA
self-cleavage kobs at 640 uM GlcN6P: 0.00317 s⁻¹
//
input-sequence: AUAAAAGCGCCACCACUACAGAAAUGUAGUUGACGAGGAGGAGGUUUAUCGAAUUUUCGGAGGAUGUCUCCAAA
self-cleavage kobs at 640 uM GlcN6P: 4.47e-05 s⁻¹
//
input-sequence: AUAAAAGCGACAGAACUACAGAAAUGUAGUUGACGAGAAUGAGGUUUAUGUAAUUUUCGGCGGAUGCCUCCAAA
self-cleavage kobs at 640 uM GlcN6P: < 1e-05 s⁻¹
